Measured selectivity ratio accompanies every entry in the list below.
# Test: Selectivity index ratio of CC50 for cytotoxicity against human MRC5 cells to IC50 for antiplasmodial activity against asexual blood stage Plasmodium falciparum K1 assessed as inhibition of parasitic growth
# Type: toxicity, cell-based
# Details: read-out: Ratio CC50/IC50

// known answers, use as guide
Smiles repr | Reported measurement
CN(O)C(=O)CCCP(=O)(OCOC(=O)C(C)(C)C)OCOC(=O)C(C)(C)C | > 59
CN(O)C(=O)CCCP(=O)(OCOC(=O)OCCCc1ccccc1)OCOC(=O)OCCCc1ccccc1 | > 711
CCON(C)C(=O)CCCP(=O)(OCOC(=O)c1ccccc1O)OCOC(=O)c1ccccc1O | > 229

Shifting focus to the compound that follows.
Notebook: CN(O)C(=O)CCCP(=O)(OCOC(=O)CCc1ccccc1)OCOC(=O)CCc1ccccc1 , selectivity ratio read as > 711

----------
Measured selectivity ratio accompanies every entry in the list below.
# Test: Selectivity index ratio of CC50 for cytotoxicity against human MRC5 cells to IC50 for antiplasmodial activity against asexual blood stage Plasmodium falciparum K1 assessed as inhibition of parasitic growth
# Type: toxicity, cell-based
# Details: read-out: Ratio CC50/IC50

// known answers, use as guide
Smiles repr | Reported measurement
CCON(C)C(=O)CCCP(=O)(OCOC(=O)c1cccc(O)c1O)OCOC(=O)c1cccc(O)c1O | > 61
CN(O)C(=O)CCCP(=O)(OCOC(=O)CCCCc1ccccc1)OCOC(=O)CCCCc1ccccc1 | > 1280

Shifting focus to the compound that follows.
Notebook: CN(O)C(=O)CCCP(=O)(OCOC(=O)c1cccc(Cl)c1)OCOC(=O)c1cccc(Cl)c1 , selectivity ratio read as > 457
